target: α-syn (Homo sapiens, UniProt P37840); construct: made in house; host or cells: E. coli BL21, pT7-7 vector; assay: ThT fluorescence assay of α-syn fibril formation; format: biochemical; conditions: as summarised in Example 4
observable: inhibition of fibril formation

>>> recorded_value("VLYVGSKTRE [β-syn 37, decamer, aa 37-46 of β-syn]")
"inhibited the fibrils"
>>> recorded_value("SMAKEGV [β-syn 6short, seven amino acids peptide, aa 9-15 of β-syn, positive control selected by Windisch et al, reference compound]")
"inhibited the fibrils"
